# SYSTEM_NAME: human ether-à-go-go-related gene (hERG) potassium channel (human, UniProt Q12809);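 further: peak tail current of the secondary pulse compared with the same well before compound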
# Sequence (Q12809 whole entry, looked up): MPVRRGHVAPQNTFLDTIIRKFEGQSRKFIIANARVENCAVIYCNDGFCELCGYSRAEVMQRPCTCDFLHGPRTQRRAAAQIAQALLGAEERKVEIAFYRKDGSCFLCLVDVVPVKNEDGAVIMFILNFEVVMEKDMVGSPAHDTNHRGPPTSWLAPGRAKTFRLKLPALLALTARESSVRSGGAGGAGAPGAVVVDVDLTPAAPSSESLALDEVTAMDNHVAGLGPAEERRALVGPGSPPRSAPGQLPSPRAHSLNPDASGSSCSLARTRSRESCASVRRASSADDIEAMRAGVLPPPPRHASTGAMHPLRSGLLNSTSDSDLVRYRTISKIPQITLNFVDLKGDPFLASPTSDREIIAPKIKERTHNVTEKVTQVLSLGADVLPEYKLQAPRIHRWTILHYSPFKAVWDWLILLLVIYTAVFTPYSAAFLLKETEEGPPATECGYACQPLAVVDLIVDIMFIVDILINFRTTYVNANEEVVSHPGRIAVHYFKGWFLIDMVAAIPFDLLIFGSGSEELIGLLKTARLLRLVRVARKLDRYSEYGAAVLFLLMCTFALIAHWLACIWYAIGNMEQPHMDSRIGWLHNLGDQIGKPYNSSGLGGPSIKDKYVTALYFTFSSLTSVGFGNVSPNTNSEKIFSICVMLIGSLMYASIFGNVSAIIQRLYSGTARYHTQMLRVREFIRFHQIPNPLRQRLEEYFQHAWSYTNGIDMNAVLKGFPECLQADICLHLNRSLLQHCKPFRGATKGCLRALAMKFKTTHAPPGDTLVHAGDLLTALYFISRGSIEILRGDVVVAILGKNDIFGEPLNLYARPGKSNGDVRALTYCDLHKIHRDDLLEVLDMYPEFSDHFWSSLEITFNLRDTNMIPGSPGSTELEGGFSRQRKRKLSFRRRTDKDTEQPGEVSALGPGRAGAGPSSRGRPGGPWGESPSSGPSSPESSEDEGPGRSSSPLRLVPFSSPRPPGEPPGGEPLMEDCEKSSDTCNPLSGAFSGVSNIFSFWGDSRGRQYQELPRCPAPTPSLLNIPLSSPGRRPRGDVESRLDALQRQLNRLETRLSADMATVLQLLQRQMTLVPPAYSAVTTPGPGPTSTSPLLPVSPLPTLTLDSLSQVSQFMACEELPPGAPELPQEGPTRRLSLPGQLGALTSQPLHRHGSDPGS
# ASSAY_NAME: primary screen, population patch clamp on CHO cells stably expressing hERG; higher = less effect of the substance
Hit rate of the full screen: of about 310,000 compounds, about 14,000 (4.5%) showed an effect of 50% or more. The effect is printed as a negative number. The list comes from a sample in which strong results are over-represented; it also holds close analogues and randomly drawn compounds.
OUTCOME_MEASURE: hERG current change (%, negative = inhibition) at 10uM (%)

| COMPOUND | ENDPOINT_RESULT |
| --- | --- |
| O=C(NCCN1CCN(c2ccccc2)CC1)Nc1cccc(Cl)c1 | -55.7 |
| CCN1CCN(c2nc(N)c([N+](=O)[O-])c(Nc3ccc(C)cc3)n2)CC1 | -68.9 |
| Cc1ccc(C2c3[nH]c4ccccc4c3C[C@H]3C(=O)N(c4ccccc4C(=O)NCCCN4CCOCC4)C(=O)N23)cc1 (stereo partly shown) | -54.6 |
| CCN1CCN(c2nc(N)c([N+](=O)[O-])c(Nc3cccc(C)c3)n2)CC1 | -45 |
| COC(=O)N1[C@H](C)C=C[C@]1(Cc1ccccc1)C(=O)NCCCNc1ncc(C(F)(F)F)cc1Cl | -10.5 |
| CCOc1ccc(C(=O)N2CCc3cc(OC)c(OC)cc3C2)cc1OCC | 2.45 |
| Cc1ccc(C2c3[nH]c4ccccc4c3C[C@H]3C(=O)N(c4ccccc4C(=O)NCCN4CCOCC4)C(=O)N23)cc1 (stereo partly shown) | -24.9 |
| CCN1CCN(c2nc(Nc3ccccc3)nc(N)c2[N+](=O)[O-])CC1 | -63 |
| O=C1NC(=O)N(c2ccccc2F)C(=O)/C1=C/c1ccc(Sc2nc3ccccc3[nH]2)o1 | -4.03 |
| O=C(Nc1cc(Cl)cc(Cl)c1)N1CCCN(Cc2ccccc2)CC1 | -76.3 |
| Nc1nc(Nc2cccc(F)c2)nc(N2CCOCC2)c1[N+](=O)[O-] | -26.7 |
| O=C(Nc1cccc(F)c1)c1cc(S(=O)(=O)NCCC2=CCCCC2)ccc1F | 17.4 |
| O=C(Nc1ccccc1)N1CCN(Cc2ccc(Cl)cc2)CC1 | -33.8 |
| Cc1ccccc1C1c2[nH]c3ccccc3c2C[C@H]2C(=O)N(c3ccccc3C(=O)NCCCN3CCOCC3)C(=O)N12 (stereo partly shown) | -21.3 |
| O=C(NCCN1CCN(c2ccccc2)CC1)Nc1cccc(Br)c1 | -58.1 |
| CC(=O)NCCC(=O)N1CCc2c([nH]c3ccccc23)C1c1cccc(Cl)c1 (stereo not shown) | -24.2 |
| Nc1nc(Nc2ccccc2F)nc(N2CCOCC2)c1[N+](=O)[O-] | 4.6 |
| O=[N+]([O-])c1ccc(Oc2cccc3cccnc23)c([N+](=O)[O-])c1 | -52 |
| COc1ccc(C2c3[nH]c4ccccc4c3C[C@H]3C(=O)N(c4ccccc4C(=O)NCCN4CCOCC4)C(=O)N23)cc1 (stereo partly shown) | -23.7 |
| O=[N+]([O-])c1ccccc1OCCCOc1cccc2cccnc12 | -15.3 |
| CN1CCN(c2nc(Nc3ccccc3)nc(N)c2[N+](=O)[O-])CC1 | -40.6 |
| O=C(NCCN1CCN(c2cccc(Cl)c2)CC1)Nc1ccccc1 | -35.1 |
| CCOC(=O)c1sc(NC(=O)c2ccc3ncsc3c2)nc1C | 10.8 |
| O=C(NCCN1CCN(c2ccccc2)CC1)Nc1ccccc1Br | -52.1 |
| Cc1nnsc1S(=O)c1ccc(Br)cc1 (stereo not shown) | -1.16 |
| O=C(Nc1ccccc1)N1CCN(Cc2ccccc2)CC1.O=C(O)C(=O)O | 11.9 |
| O=C(NCCN1CCOCC1)Nc1ccccc1 | -6.63 |
| CC(C)CNC(=O)NC(=O)COC(=O)c1cc(F)cc(F)c1 | -4.56 |
| C[C@]1(C(=O)NCCCNc2ncc(C(F)(F)F)cc2Cl)C=C[C@@H](Cc2ccccc2)N1C(=O)c1ccccc1 | 7.01 |
| CCN1CCN(c2nc(Nc3ccccc3F)nc(N)c2[N+](=O)[O-])CC1 | -56.6 |
| Nc1nc(Nc2ccccc2)nc(N2CCCC2)c1[N+](=O)[O-] | -34.5 |
| O=C1NC(=O)N(c2cccc(Cl)c2)C(=O)/C1=C\c1ccc(Sc2nc3ccccc3[nH]2)o1 | 13.9 |
| O=C(CCN1CCOCC1)N1CCc2c([nH]c3ccccc23)C1c1cccc(Cl)c1 (stereo not shown) | -70.5 |
| COc1cccc(C2c3[nH]c4ccccc4c3C[C@H]3C(=O)N(c4ccccc4C(=O)NCCCN4CCOCC4)C(=O)N23)c1 (stereo partly shown) | -19.9 |
| O=C1NC(=O)N(c2ccc(Cl)cc2)C(=O)/C1=C\c1ccc(Sc2nc3ccccc3[nH]2)o1 | -65.6 |
| O=C(Nc1ccc(C(=O)O)cc1)/C(=C\c1ccco1)NC(=O)c1ccccc1 | 21.2 |
| CCCC/C(C)=N\NC(=O)CNS(=O)(=O)c1ccc([N+](=O)[O-])cc1 | -2.14 |
